- Test system: MCF7
- protocol-details: Cytotoxicity against human MCF7 cells assessed as growth inhibition after 48 hrs by SRB assay
- Format: functional, cell-based
- condition-set: MCF7, 48 h
pIC50: −log10 of the molar value.
Please mark TRUE if the recorded pIC50 is equal to or greater than 5, and FALSE if it falls below.

(Q) # bool: pIC50 of `CC(=O)O[C@H]1CC[C@@]2(C)[C@@H](CC[C@@H]3[C@@H]2CC[C@]2(C)c4nc(CC#N)sc4C[C@@H]32)C1` >= 5
(A) TRUE

Now look at this one.
(Q) # bool: pIC50 of C[C@]12CC[C@H]3[C@@H](CCC4=C[C@]5(CC[C@@]43C)OC5C(=O)c3ccccc3)[C@@H]1CC[C@@H]2O (some centres not stated) >= 5
(A) FALSE

====

- System: MCF7
- protocol-details: Reduction in AP-2 gamma mRNA expression in human MCF7 cells by RT-PCR relative to control
- Type: functional, cell-based
Calls of active or inactive are those of the source. The rule behind the calls is not given here.
quantity-measured: Activity

Lookup result for C[C@]12CC[C@H](O)C[C@@H]1CC[C@@H]1[C@@H]2CC[C@@]2(C)[C@H]1CC[C@]21OC1C(=O)c1ccccc1 (stereo partly drawn) ; measured Activity: Active

Lookup result for C[C@]12CC[C@H]3[C@@H](CCC4=C[C@]5(CC[C@@]43C)OC5C(=O)c3ccccc3)[C@@H]1CC[C@@H]2O (stereo partly drawn) ; measured Activity: Active

Lookup result for `CC(=O)O[C@H]1CC[C@@]2(C)[C@@H](CC[C@@H]3[C@@H]2CC[C@]2(C)/C(=N/c4ccc(S(=O)(=O)N(CCO)c5ncccn5)cc4)CC[C@@H]32)C1` ; measured Activity: Active

====

- Test system: MCF7
- protocol-details: Cytotoxicity against human MCF7 cells assessed as growth inhibition after 48 hrs by SRB assay
- Type: functional, cell-based
- condition-set: MCF7, 48 h
quantity-measured: IC50 (µM)
The response must be a number in µM with no trailing unit.

Bench note, MCF7: entry `CC(=O)O[C@H]1CC[C@@]2(C)[C@@H](CC[C@@H]3[C@@H]2CC[C@]2(C)/C(=N/c4ccc(S(=O)(=O)N(CCO)c5ncccn5)cc4)CC[C@@H]32)C1` , its IC50 = 7.5

====

- Tested on: MCF7
- protocol-details: Cytotoxicity against human MCF7 cells assessed as growth inhibition after 48 hrs by SRB assay
- Format: functional, cell-based
- condition-set: MCF7, 48 h
quantity-measured: pIC50
pIC50 is a log-scale quantity: -log10 of the concentration expressed in molar.

Solved entries (count: 3):
Lookup result for C[C@]12CC[C@H](O)C[C@@H]1CC[C@@H]1[C@@H]2CC[C@@]2(C)[C@H]1CC[C@]21OC1C(=O)c1ccccc1 (some centres undefined) ; measured pIC50: 5.14

Lookup result for `C[C@]12CC[C@H]3[C@@H](CCC4=CC(=O)CC[C@@]43C)[C@@H]1CC[C@@H]2n1c(=S)n(-c2ccccc2)c(=O)c2ccccc21` ; measured pIC50: 4.90

Lookup result for CC(=O)O[C@H]1CC[C@@]2(C)[C@@H](CC[C@@H]3[C@@H]2CC[C@]2(C)/C(=N/C4CCNN=C4O)CC[C@@H]32)C1 (some centres undefined) ; measured pIC50: 5.00

# next compound below
Lookup result for `C[C@]12CC[C@H]3[C@@H](CCC4=CC(=O)CC[C@@]43C)[C@@H]1CC[C@@H]2n1c(=S)n(-c2ccccc2)c(=O)c2cc(F)ccc21` ; measured pIC50: 4.94
